Taken from paper PMC10224544.

Listed here: items and their measured H2O2 free radical scavenging ability.
- Assay Protocol: Hydrogen peroxide scavenging assay
- Condition Description: Comp. Conc. 250 µg/mL; mean ± S.E.M, n = 3

{"columns": ["Compound", "H2O2 free radical scavenging ability"],
 "data": [
  ["N#Cc1ccncc1.N#Cc1ccncc1.O=C([O-])Cc1cccc(Cl)c1.O=C([O-])Cc1cccc(Cl)c1.O=C([O-])Cc1cccc(Cl)c1.O=C([O-])Cc1cccc(Cl)c1.[Cu+2].[Cu+2] [Complex 5, Cu2(3-ClC6H4COO)4(4-CNPy)2]", "75.70 ± 0.62 %"],
  ["O=C([O-])Cc1ccccc1Cl.O=C([O-])Cc1ccccc1Cl.O=C([O-])Cc1ccccc1Cl.O=C([O-])Cc1ccccc1Cl.Oc1ccncc1.Oc1ccncc1.[Cu+2].[Cu+2] [Complex 3, Cun(2-ClC6H4COO)4(4-OHPy)2]", "72.29 ± 0.43 %"],
  ["N#Cc1cccnc1.N#Cc1cccnc1.O=C([O-])Cc1ccccc1Cl.O=C([O-])Cc1ccccc1Cl.O=C([O-])Cc1ccccc1Cl.O=C([O-])Cc1ccccc1Cl.[Cu+2].[Cu+2] [Complex 1, Cu2(2-ClC6H4COO)4(3-CNPy)2]", "70.32 ± 0.52 %"],
  ["O=C([O-])Cc1cccc(Cl)c1.O=C([O-])Cc1cccc(Cl)c1.O=C([O-])Cc1cccc(Cl)c1.O=C([O-])Cc1cccc(Cl)c1.Oc1ccncc1.Oc1ccncc1.[Cu+2].[Cu+2] [Complex 6, Cu2(3-ClC6H4COO)4(4-OHPy)2]", "73.42 ± 0.11 %"]
]}

---

- Target Or Test System: acetylcholinesterase (AChE) (Electrophorus electricus, UniProt O42275)
- Sequence (O42275 24-633): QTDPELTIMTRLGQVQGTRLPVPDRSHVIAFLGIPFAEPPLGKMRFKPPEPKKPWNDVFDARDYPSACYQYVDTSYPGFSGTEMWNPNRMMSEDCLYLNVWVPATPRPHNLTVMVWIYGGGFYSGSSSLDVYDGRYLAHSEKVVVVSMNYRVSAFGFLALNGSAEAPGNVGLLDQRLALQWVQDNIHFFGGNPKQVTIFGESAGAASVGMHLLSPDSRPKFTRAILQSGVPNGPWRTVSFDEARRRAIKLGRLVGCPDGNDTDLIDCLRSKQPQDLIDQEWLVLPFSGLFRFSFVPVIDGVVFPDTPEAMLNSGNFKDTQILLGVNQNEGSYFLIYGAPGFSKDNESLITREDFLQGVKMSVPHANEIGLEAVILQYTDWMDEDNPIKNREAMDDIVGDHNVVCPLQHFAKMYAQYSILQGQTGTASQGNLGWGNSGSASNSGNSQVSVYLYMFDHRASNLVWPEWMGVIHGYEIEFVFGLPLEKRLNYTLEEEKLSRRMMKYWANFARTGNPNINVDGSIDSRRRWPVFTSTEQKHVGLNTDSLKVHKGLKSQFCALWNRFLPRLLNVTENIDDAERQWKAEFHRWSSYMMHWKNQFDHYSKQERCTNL
- Assay Protocol: biochemical
- Format: biochemical
- Condition Description: Comp. Conc. 125 µg/mL; n = 3
Answer condition not met if Inhibition of Acetylcholinesterase (%AChE Activity) is under 70%, and condition met if it is 70% or more.

{"columns": ["Molecule", "Answer Label"],
 "data": [
  ["N#Cc1cccnc1.N#Cc1cccnc1.O=C([O-])Cc1ccccc1Cl.O=C([O-])Cc1ccccc1Cl.O=C([O-])Cc1ccccc1Cl.O=C([O-])Cc1ccccc1Cl.[Cu+2].[Cu+2] [Complex 1, Cu2(2-ClC6H4COO)4(3-CNPy)2]", "condition not met"],
  ["N#Cc1cccnc1.N#Cc1cccnc1.O=C([O-])Cc1cccc(Cl)c1.O=C([O-])Cc1cccc(Cl)c1.O=C([O-])Cc1cccc(Cl)c1.O=C([O-])Cc1cccc(Cl)c1.[Cu+2].[Cu+2] [Complex 4, Cu2(3-ClC6H4COO)4(3-CNPy)2]", "condition met"],
  ["O=C([O-])Cc1cccc(Cl)c1.O=C([O-])Cc1cccc(Cl)c1.O=C([O-])Cc1cccc(Cl)c1.O=C([O-])Cc1cccc(Cl)c1.Oc1ccncc1.Oc1ccncc1.[Cu+2].[Cu+2] [Complex 6, Cu2(3-ClC6H4COO)4(4-OHPy)2]", "condition not met"]
]}

---

compounds and their reported Inhibition of Acetylcholinesterase (%AChE Activity)
- Target Or Test System: acetylcholinesterase (AChE) (Electrophorus electricus)
- Assay Protocol: biochemical
- Format: biochemical
- Condition Description: Comp. Conc. 250 µg/mL; n = 3
Assay Endpoint: Inhibition of Acetylcholinesterase (%AChE Activity) (%)

{"columns": ["Molecular String", "Unit Tag", "Experimental Value"],
 "data": [
  ["N#Cc1ccncc1.N#Cc1ccncc1.O=C([O-])Cc1cccc(Cl)c1.O=C([O-])Cc1cccc(Cl)c1.O=C([O-])Cc1cccc(Cl)c1.O=C([O-])Cc1cccc(Cl)c1.[Cu+2].[Cu+2]", "%", 76.87],
  ["N#Cc1cccnc1.N#Cc1cccnc1.O=C([O-])Cc1ccccc1Cl.O=C([O-])Cc1ccccc1Cl.O=C([O-])Cc1ccccc1Cl.O=C([O-])Cc1ccccc1Cl.[Cu+2].[Cu+2]", "%", 67.83],
  ["O=C([O-])Cc1cccc(Cl)c1.O=C([O-])Cc1cccc(Cl)c1.O=C([O-])Cc1cccc(Cl)c1.O=C([O-])Cc1cccc(Cl)c1.Oc1ccncc1.Oc1ccncc1.[Cu+2].[Cu+2]", "%", 67.05],
  ["O=C([O-])Cc1ccccc1Cl.O=C([O-])Cc1ccccc1Cl.O=C([O-])Cc1ccccc1Cl.O=C([O-])Cc1ccccc1Cl.Oc1ccncc1.Oc1ccncc1.[Cu+2].[Cu+2]", "%", 72.91]
]}
